METHOD_DESCRIPTION: decrease of insulin promoter-GFP reporter – imaging, high-content screening, mouse beta cells (AID 1628)
CONDITIONS: MIN6 insulin promoter GFP reporter, at 5 µM, active compounds read low
The campaign covered roughly 190,000 compounds. About 930 (0.49%) were called active. This is one part of the list. Potency and affinity values are given separately.
The reader will find reported z-score values listed item by item below.
EXPERIMENTAL_READOUT: z-score

[[record]]
compound = "CCCN1C(=O)/C(=C/c2c(NCCCOCC)nc3c(C)cccn3c2=O)SC1=S"
experimental_readout = "z-score"
measured_number = 5.71

[[record]]
compound = "CC(C)(C)NS(=O)(=O)c1ccc(CCC(=O)NCc2ccc3c(c2)OCO3)cc1"
experimental_readout = "z-score"
measured_number = 0.89

[[record]]
compound = "CCN(CC)S(=O)(=O)c1cccc(-c2nnc(SCCCC(=O)c3ccc(F)cc3)o2)c1"
experimental_readout = "z-score"
measured_number = -4.17

[[record]]
compound = "Cc1cc(SCCOc2ccccc2)nc(N)n1"
experimental_readout = "z-score"
measured_number = 3.13

[[record]]
compound = "CC(C)CNC(=O)CSc1nnc(-c2cccc(S(=O)(=O)N3CCCCC3)c2)o1"
experimental_readout = "z-score"
measured_number = 4.75


The reported numbers originate from PubChem BioAssay AID1628.
